Source listed as PubChem BioAssay (NCI).

Consider the following molecules and their measured growth readings.
tested on: U251 CNS; experiment: NCI-60 one-dose screen, 48 h (100 = growth as untreated, 0 = no growth, -100 = all killed); settings: 10 µM unless noted
The panel holds about 83,000 compounds, 20% with a hit somewhere; the sample as a whole holds those more often.

[
  {
    "entry-smiles": "Cc1nc(C)c(C(=O)O)cc1C(=O)O",
    "growth, %": 107
  },
  {
    "entry-smiles": "CC(C)(N)CO[C@H]1C[C@H]2CC[C@@]1(C)C2(C)C",
    "growth, %": 96.6
  },
  {
    "entry-smiles": "OCCOc1ccc(-c2cc(-c3ccccn3)nc(-c3ccccn3)c2)cc1",
    "growth, %": 4.7
  },
  {
    "entry-smiles": "Cn1c2ccccc2c2nnc(NCCCCO)nc21",
    "growth, %": 103
  },
  {
    "entry-smiles": "Clc1ncnc2nc[nH]c12",
    "growth, %": 103
  },
  {
    "entry-smiles": "COc1cccc(N=CNc2cccc(OC)c2)c1",
    "growth, %": 95.9
  },
  {
    "entry-smiles": "COC(=O)c1ccccc1C(=O)c1c(C)cc(C)cc1C",
    "growth, %": 91.2
  }
]

====

system: HCC-2998 colon; assay: NCI-60 one-dose screen, 48 h (100 = growth as untreated, 0 = no growth, -100 = all killed); conditions: 10 µM unless noted
The panel holds about 83,000 compounds, 20% with a hit somewhere; the sample as a whole holds those more often. Activity calls are given as the source filed them. How the source made its calls: active means growth percent below 10; inactive means the rest.

[
  {
    "compound": "C=C1C(=O)C2CCN1CC2",
    "growth": "106% (inactive)"
  },
  {
    "compound": "Nc1nc(N)nc(N2CCCCC2)n1",
    "growth": "106% (inactive)"
  },
  {
    "compound": "CCNCC(C)(C)O",
    "growth": "109% (inactive)"
  },
  {
    "compound": "CCN(C(=O)Nc1ccccc1Cl)c1ccccc1",
    "growth": "111% (inactive)"
  },
  {
    "compound": "S=C(Sc1ccc(Cl)cc1)Sc1ccc(Cl)cc1",
    "growth": "24.1% (inactive)"
  },
  {
    "compound": "CC(=O)C1C(=O)C(=O)N(c2ccc(Cl)c(Cl)c2)C1=O (centres undefined)",
    "growth": "101% (inactive)"
  },
  {
    "compound": "O=C(O)C1CSC(c2ccccc2)N1 (centres undefined)",
    "growth": "103% (inactive)"
  },
  {
    "compound": "Cc1cc(=O)n(Nc2ccccc2)c(O)c1C#N",
    "growth": "112% (inactive)"
  },
  {
    "compound": "O=C(O)c1cc(I)ccc1O",
    "growth": "95.1% (inactive)"
  },
  {
    "compound": "O=c1cc(C(F)(F)F)[nH]c(=S)[nH]1",
    "growth": "117% (inactive)"
  },
  {
    "compound": "O=C(NCc1ccco1)Nc1cccc2c(NC(=O)NCc3ccco3)cccc12",
    "growth": "74.5% [100 µM] (inactive)"
  },
  {
    "compound": "Cc1cc(C)cc(OCC(=O)O)c1",
    "growth": "102% (inactive)"
  },
  {
    "compound": "COc1ccc2c(c1)Nc1ccccc1S2",
    "growth": "108% (inactive)"
  },
  {
    "compound": "O=C1C=CC(=O)C2=C1CCCC2",
    "growth": "123% (inactive)"
  }
]

====

test system: OVCAR-8 ovarian; assay: NCI-60 one-dose screen, 48 h (100 = growth as untreated, 0 = no growth, -100 = all killed); details: 10 µM unless noted
Compounds without any hit were thinned out: in the full panel of roughly 83,000, 20% have a hit.
Would you mind labelling by growth? At or over 90% is 1.0, under is 0.0.

[
  {
    "molecule": "CCCCCCCCCCCCSC1=C(Cl)C(=O)C(OC)=C(OC)C1=O",
    "class-label": 0.0
  },
  {
    "molecule": "Cc1ccccc1CC(N)C(=O)O (stereo not drawn)",
    "class-label": 1.0
  },
  {
    "molecule": "CC(=O)OCC1CCC(COC(C)=O)CC1 (stereo not drawn)",
    "class-label": 1.0
  },
  {
    "molecule": "O=C1CSc2ccccc2N1",
    "class-label": 1.0
  },
  {
    "molecule": "Cc1cc(CC(=O)NCCO)n(CCO)c(=O)c1",
    "class-label": 1.0
  },
  {
    "molecule": "O=C(CCl)Nc1ccccc1SCc1cc(Cl)cc2c1OCOC2",
    "class-label": 0.0
  },
  {
    "molecule": "CSc1nsc(N)n1",
    "class-label": 1.0
  },
  {
    "molecule": "O=C(O)C1CSC(c2ccccc2)N1 (stereo not drawn)",
    "class-label": 1.0
  },
  {
    "molecule": "CC(=O)NC(CCc1ccc(Cl)c(Cl)c1)c1cccc(O)c(=O)c1 (stereo not drawn)",
    "class-label": 0.0
  },
  {
    "molecule": "CN=S(=O)(OCCCCCOS(=O)(=NC)c1ccc(C)cc1)c1ccc(C)cc1 (stereo not drawn)",
    "class-label": 1.0
  },
  {
    "molecule": "CCC(/C=C\\C(C)=O)CC",
    "class-label": 1.0
  },
  {
    "molecule": "CCN(CC)CCCC(C)NC(=S)N/N=C(\\C)c1ccccn1 (stereo not drawn)",
    "class-label": 0.0
  },
  {
    "molecule": "COc1ccc2c(Cl)cc(NC(=O)Nc3c(C)cccc3C)nc2c1",
    "class-label": 0.0
  }
]

====

tested on: SNB-75 CNS; assay: NCI-60 one-dose screen, 48 h (100 = growth as untreated, 0 = no growth, -100 = all killed); settings: 10 µM unless noted
This is part of a sample that, as a whole, favours compounds with a hit. Of some 83,000 tested, about 20% had one in any assay.
Consider the following compounds and their measured growth readings.
attribute-measured: growth (%)

[
  {
    "compound": "CC(=O)OC(C)c1cccc(C#N)c1 (centres undefined)",
    "attribute-measured": "growth",
    "result-number": 89.7
  },
  {
    "compound": "COC(=O)C1(CC(C)=O)NC(=S)NC(=O)C1C#N (centres undefined)",
    "attribute-measured": "growth",
    "result-number": 112
  },
  {
    "compound": "Cc1ccc(S(=O)(=O)CCCl)cc1",
    "attribute-measured": "growth",
    "result-number": 94.7
  },
  {
    "compound": "NNc1ncnc2c1ncn2C1OC(CO)C(O)C1O (centres undefined)",
    "attribute-measured": "growth",
    "result-number": 94.2
  },
  {
    "compound": "Cc1ccnc(Nc2nc3ccccc3[nH]2)n1",
    "attribute-measured": "growth",
    "result-number": 109
  },
  {
    "compound": "CCOC(=O)C(=O)CC(=O)c1ccccc1",
    "attribute-measured": "growth",
    "result-number": 91.7
  },
  {
    "compound": "CSc1cnc2ccccc2n1",
    "attribute-measured": "growth",
    "result-number": 107
  },
  {
    "compound": "CC1CC(C)S(=O)(=O)C1 (centres undefined)",
    "attribute-measured": "growth",
    "result-number": 94.6
  },
  {
    "compound": "NCC(O)C(O)C(O)C(O)CO (centres undefined)",
    "attribute-measured": "growth",
    "result-number": 91.8
  },
  {
    "compound": "O=C(OC1CCCC1)c1ccccc1Cl",
    "attribute-measured": "growth",
    "result-number": 90.3
  },
  {
    "compound": "CC(=O)NNC(=S)N/C=C/c1c(C)ccc([N+](=O)[O-])c1[N+](=O)[O-]",
    "attribute-measured": "growth",
    "result-number": 88.5
  },
  {
    "compound": "O=C(Nc1cccc(Cl)c1)c1ccc(Cl)cc1Cl",
    "attribute-measured": "growth",
    "result-number": 84.7
  },
  {
    "compound": "O=C(NC(=S)N1CC=CCC1)c1ccccc1",
    "attribute-measured": "growth",
    "result-number": 111
  },
  {
    "compound": "O=S(=O)(OCCOS(=O)(=O)c1ccccc1)c1ccccc1",
    "attribute-measured": "growth",
    "result-number": 93.6
  },
  {
    "compound": "Cc1cc(CO)c(O)c(CO)c1",
    "attribute-measured": "growth",
    "result-number": 64.4
  },
  {
    "compound": "COc1ccc(C(=O)/C(=N/Nc2ccccc2)c2ccc(OC)cc2)cc1",
    "attribute-measured": "growth",
    "result-number": 97.1
  },
  {
    "compound": "Nc1c(Br)cc(O)c2c1C(=O)c1ccccc1C2=O",
    "attribute-measured": "growth",
    "result-number": 110
  },
  {
    "compound": "CS(=O)(=O)c1ccc(/C=C\\C(=O)O)cc1",
    "attribute-measured": "growth",
    "result-number": 80.2
  },
  {
    "compound": "OCc1cccnc1",
    "attribute-measured": "growth",
    "result-number": 102
  },
  {
    "compound": "CCOC(=O)/C(C#N)=C\\c1c[nH]c2ccccc12",
    "attribute-measured": "growth",
    "result-number": 85.9
  },
  {
    "compound": "COC1OC(C(O)C(O)CO)C(O)C(O)C1O (centres undefined)",
    "attribute-measured": "growth",
    "result-number": 95.6
  },
  {
    "compound": "CN1CCN(C(=S)S)CC1",
    "attribute-measured": "growth",
    "result-number": 105
  },
  {
    "compound": "CC(CC(CCC(=O)O)(c1ccccc1)c1ccccc1)N(C)C (centres undefined)",
    "attribute-measured": "growth",
    "result-number": 99.6
  },
  {
    "compound": "NNC(=O)c1ccccc1N",
    "attribute-measured": "growth",
    "result-number": 87.9
  },
  {
    "compound": "C=CCS(C)(=O)=O",
    "attribute-measured": "growth",
    "result-number": 94.1
  },
  {
    "compound": "CCCCn1cnc2c(=O)[nH]cnc21",
    "attribute-measured": "growth",
    "result-number": 89.6
  },
  {
    "compound": "O=C1C=C(c2ccccc2)C(O)(c2ccccc2)C1 (centres undefined)",
    "attribute-measured": "growth",
    "result-number": 77.6
  },
  {
    "compound": "CN(C)c1ccc2nc3ccc(=[N+](C)C)cc-3oc2c1",
    "attribute-measured": "growth",
    "result-number": 71.3
  },
  {
    "compound": "CN(C)c1ncnc2c1cnn2C",
    "attribute-measured": "growth",
    "result-number": 90.7
  }
]
